Sourced from PubChem BioAssay (EPA / NIEHS)

Read-out: Cytochrome P450 2B6 (Homo sapiens) (UniProt P20813)
Assay: CLD_CYP2B6_6hr: CellzDirect (CLD) Gene Expression Assay for xenobiotic metabolism (CYP2B6) at 6 hours (AID 2283677);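 further: actives raise CYP2B6 transcript above DMSO baseline so AC50 marks an inducer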
Inconclusive results are not listed. Activity calls are given as the source filed them. How the source made its calls: active means hit-call score of the fitted dose curve at least 0.9, where 1 is the maximum; inconclusive means response in the unintended direction; inactive means score below 0.9.
// classify into t (active), f (inactive)

Recorded test outcome, item CN(C)[C@@H]1C(=O)C(C(N)=O)=C(O)[C@@]2(O)C(=O)C3=C(O)c4c(O)cccc4[C@@](C)(O)[C@H]3[C@H](O)[C@@H]12
f

What call does the record list for CC1=NNC(=O)N(/N=C/c2cccnc2)C1 ?
f

Assay result, entry CC(C)N(C(=O)SCC(Cl)=C(Cl)Cl)C(C)C — outcome?
t

Hi team, can someone confirm the assay call for CCCCSP(=O)(SCCCC)SCCCC ?
t

Kindly provide the recorded test outcome for the following compound: CCOP(=O)(SC(C)CC)N1CCSC1=O (stereo not given)
t

How was CCCCN(CC)c1c([N+](=O)[O-])cc(C(F)(F)F)cc1[N+](=O)[O-] classified in this test?
t

Call for entry C#CCC1=C(C)C(OC(=O)C2C(C=C(C)C)C2(C)C)CC1=O (stereo not given) :
t

I would be grateful if you could indicate the recorded call for COc1cc(OC)nc(Sc2cccc(Cl)c2C(=O)O)n1 .
f

What is the recorded call for this compound in the test? O=[N+]([O-])c1cc(C(F)(F)F)c(Cl)c([N+](=O)[O-])c1Nc1ncc(C(F)(F)F)cc1Cl
f

Test call for this compound, please: CCCCOC(=O)[C@@H](C)Oc1ccc(Oc2ccc(C#N)cc2F)cc1
f

What did this assay record as the result for C[N+]1(C)CCCCC1 ?
f

Please share the test call associated with CCC(=O)Nc1ccc(Cl)c(Cl)c1 .
t

Hi team, can someone confirm the assay call for CSC1=N[C@@](C)(c2ccccc2)C(=O)N1Nc1ccccc1 ?
t

I'd appreciate the recorded outcome for CCCSP(=O)(OCC)Oc1ccc(Br)cc1Cl (stereo not given) from this test.
t

State the result this test recorded for CCOC(=O)CC(SP(=O)(OC)OC)C(=O)OCC (stereo not given) .
t
